- Assay notes: gradient 5% acetonitrile 3 min, to 50% in 2 min, to 85% in 15 min, held 3 min, 100 µL/min
- Condition notes: column: Zorbax Extend-C18 2.1 x 50 mm; eluents: water / acetonitrile, 0.1% formic acid
Recorded endpoint: RP-LC retention time (s)

## Task # return recorded RP-LC retention time for input COc1cc(Nc2c(C#N)cnc3cc(OCCCN4CCN(C)CC4)c(OC)cc23)c(Cl)cc1Cl
## Result 675

## Task Quick one: give measured RP-LC retention time for Cc1nc(Nc2ncc3c(n2)CCCC3=O)nc2c(C)cccc12
## Result 620

## Task Quick one: give measured RP-LC retention time for Cc1ccc(C)c(N2CCN(Cc3nc(-c4ccc(N5CCOCC5)nc4)no3)CC2)c1
## Result 949

## Task Answer with reported RP-LC retention time of COc1ccc(-c2noc(-c3nnn4c3COC(c3ccc(F)cc3)C4)n2)cc1OC (stereo not given)
## Result 1020

## Task Supply measured RP-LC retention time of COc1cc(NC(=O)N2CCC(N3CCN(Cc4ccccc4)C3=O)CC2)cc(OC)c1 in your reply.
## Result 804

The reported numbers originate from the METLIN SMRT retention time set (Domingo-Almenara et al. 2019).
